Target: human A2AAR receptor (Homo sapiens, UniProt P29274)
Assay: Competition binding with tritiated compound 1
Conditions: Sf9 membranes
MEASURED PARAMETER: A2AAR affinity (in words)

Nc1c(Oc2ccccc2)ccc2c1C(=O)c1ccccc1C2=O ... low-µM affinity
Nc1cccc2c1C(=O)c1ccccc1C2=O ... low-µM affinity

====

Molecular target: human adenosine A2A receptor (Homo sapiens)
Sequence (P29274 whole entry): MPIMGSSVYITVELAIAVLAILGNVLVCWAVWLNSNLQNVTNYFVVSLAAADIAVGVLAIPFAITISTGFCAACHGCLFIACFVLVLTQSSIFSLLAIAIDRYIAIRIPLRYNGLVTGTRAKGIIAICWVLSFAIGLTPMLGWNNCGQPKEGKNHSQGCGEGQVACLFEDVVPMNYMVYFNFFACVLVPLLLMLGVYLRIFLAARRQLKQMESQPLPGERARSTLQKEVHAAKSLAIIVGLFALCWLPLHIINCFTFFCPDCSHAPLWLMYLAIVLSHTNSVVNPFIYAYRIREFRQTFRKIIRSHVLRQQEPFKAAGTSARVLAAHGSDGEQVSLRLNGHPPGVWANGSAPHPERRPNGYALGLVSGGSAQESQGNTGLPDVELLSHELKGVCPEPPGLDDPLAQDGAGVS
Assay: Radioligand displacement at A2AAR-HEK membranes
Type: binding
Conditions: mammalian membranes, A2AAR over A1AR
MEASURED PARAMETER: A2A / A1 selectivity (fold)

As a guide, the following entries are already answered.
Nc1c(C(=O)Nc2nccs2)sc2nc3c(cc12)C(=O)CCC3 ... 2.24
COc1ccc(N)c2c1C(=O)c1ccccc1C2=O ... 2.74

[A] Nc1ccc(N)c2c1C(=O)c1ccccc1C2=O
[B] Cc1ccc(N2C(=O)c3cccc(N)c3C2=O)cc1
Query string: Returns: the label, A or B , whose recorded A2A / A1 selectivity is the lower number. Please reply using the label of the selected record.
Result string: B
(B: 0.13 fold, A: 2.51 fold)

====

Target: UniProt P29274
Assay: Functional cAMP accumulation assay
Format: cell-based
Conditions: 10 µM compound, 10 nM or 10 µM 3a
MEASURED PARAMETER: A2AAR antagonist functional activity (in words)

Cc1cccc(NC2=C(N)C(=O)c3ccccc3C2=O)c1 ... significant activity
NC1=C(Nc2cccc(C(F)(F)F)c2)C(=O)c2ccccc2C1=O ... significant activity

====

Biological target: human A2AAR receptor (Homo sapiens)
Experiment: Competition binding with tritiated compound 1
Settings: ligand binding energy per heavy atom, from Sf9 Ki
MEASURED PARAMETER: LE (experimental ligand efficiency) (kcal/mol per heavy atom)

CC(=O)Oc1cccc(-c2nc(C(N)=O)c(N)o2)c1 [compound 46] ... 0.32
Nc1ccc(-c2nc3c(N)cccc3[nH]2)cc1 [compound 57] ... 0.32
Nc1c(C(=O)c2ccccc2)oc2ccc(Br)cc12 [compound 16] ... 0.38

====

Target: human adenosine A1 receptor (Homo sapiens)
Sequence (P30542 whole entry): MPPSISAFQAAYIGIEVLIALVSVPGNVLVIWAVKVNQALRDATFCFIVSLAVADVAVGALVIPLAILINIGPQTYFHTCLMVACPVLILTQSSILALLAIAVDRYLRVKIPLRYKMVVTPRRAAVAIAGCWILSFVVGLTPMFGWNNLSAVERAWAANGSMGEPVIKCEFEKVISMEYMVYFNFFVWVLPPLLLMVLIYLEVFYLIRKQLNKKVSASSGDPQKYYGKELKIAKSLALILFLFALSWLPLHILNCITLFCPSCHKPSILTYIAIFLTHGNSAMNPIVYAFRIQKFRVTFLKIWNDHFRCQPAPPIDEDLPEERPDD
Assay: Radioligand
Format: binding
MEASURED PARAMETER: Ki (nM)

[a] N#Cc1c(N)nc2c(C(N)=O)c(Nc3ccccc3)sc2c1-c1ccccc1
[b] Cc1cccc(NC2=C(N)C(=O)c3ccccc3C2=O)c1
Query string: Returns: the label, a or b , whose recorded Ki is the lower number. Please reply using the label of the selected record.
Result string: a
(a: 60 nM, b: 1750 nM)

[A] Cn1c(=O)cc2c3c(c(N)ccc31)C(=O)c1ccccc1-2
[B] COc1ccc(Cl)cc1Nc1nc(N)nc(-c2oc3ccccc3c2C)n1
Query string: Returns: the label, A or B , whose recorded Ki is the lower number. Please reply using the label of the selected record.
Result string: A
(A: 150 nM, B: 1440 nM)

====

Listed here: molecules with reported pKi for human adenosine A2A receptor (Homo sapiens).
pKi: −log10 of the molar value.
MEASURED PARAMETER: pKi

As a guide, the following entries are already answered.
NC1=C(Nc2cccc(C(F)(F)F)c2)C(=O)c2ccccc2C1=O ... 6.14
Nc1ccc(N)c2c1C(=O)c1ccccc1C2=O ... 6.96
Cc1cccc(NC2=C(N)C(=O)c3ccccc3C2=O)c1 ... 6.82
Cn1c(=O)cc2c3c(c(N)ccc31)C(=O)c1ccccc1-2 ... 6.70
Nc1c(C(=O)Nc2ccccc2F)sc2nc3c(cc12)C(=O)CCC3 ... 7.22

[P] Nc1ccc(Cl)c2c1C(=O)c1ccccc1C2=O
[Q] N#Cc1c(N)nc2c(oc3ccccc32)c1-c1ccccc1
[R] Nc1c(C(=O)Nc2nccs2)sc2nc3c(cc12)C(=O)CCC3
Query string: List by increasing pKi. Write the labels, ordered according to the request.
Result string: P, Q, R

[a] N#Cc1c(N)nc2c(C(N)=O)c(Nc3ccccc3)sc2c1-c1ccccc1
[b] COc1ccc(Cl)cc1Nc1nc(N)nc(-c2oc3ccccc3c2C)n1
Query string: Returns: the label, a or b , whose recorded pKi is the lower number. Please reply using the label of the selected record.
Result string: a
